B1: library; a variant is named by its letters at N, in order (parent)
chain: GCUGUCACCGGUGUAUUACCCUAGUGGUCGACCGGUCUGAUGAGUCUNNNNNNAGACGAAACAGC

variants of: B1; experiment: FACS-Seq fitted mean relative fluorescence mCherry/BFP with ligand (log10 relative fluorescence); ligand: hypoxanthine (xanthine aptamer); ligand concentration (+) FACS-Seq: 5 mM; higher = higher reporter protein expression; conditions: HEK293T, ligand present: yes
READOUT: FACS-Seq fitted mean (log10)
Reply with just the number.

input: Entry under review: `GCUGUCACCGGUGUAUUACCCUAGUGGUCGACCGGUCUGAUGAGUCUUAUAUGAGACGAAACAGC` . Reported FACS-Seq fitted mean (log10)?
output: 0.531

input: What about `GCUGUCACCGGUGUAUUACCCUAGUGGUCGACCGGUCUGAUGAGUCUAAAGAGAGACGAAACAGC` ?
output: 0.451

input: What about `GCUGUCACCGGUGUAUUACCCUAGUGGUCGACCGGUCUGAUGAGUCUGAAAUGAGACGAAACAGC` ?
output: 0.497
